- Organism: Rattus norvegicus
- PROTOCOL TEXT: Open TG-GATES - Regimen: Single
- Type: toxicity, organism-based, Sprague-Dawley
- Design: regimen Single, gender Male, age 6 weeks
- ASSAY CONDITIONS: in vivo, po, 300 mg/kg, 9 h, tissue Plasma, route gavage, dose level Middle

| COMPOUND | DBIL |
| --- | --- |
| NC(N)=Nc1nc(CSCCC(N)=NS(N)(=O)=O)cs1 | 0.064 mg/dL |
| COC1=CC(=O)C[C@@H](C)[C@]12Oc1c(Cl)c(OC)cc(OC)c1C2=O | 0.07 mg/dL |
| COc1ccc2[nH]c([S+]([O-])Cc3ncc(C)c(OC)c3C)nc2c1 (centres undefined) | 0.068 mg/dL |
| CCOC(=O)CCC(=O)O[C@H]1[C@H](O[C@@H]2[C@@H](C)[C@H](O[C@H]3C[C@@](C)(OC)[C@@H](O)[C@H](C)O3)[C@@H](C)C(=O)O[C@H](CC)[C@@](C)(O)[C@H](O)[C@@H](C)C(=O)[C@H](C)C[C@@]2(C)O)O[C@H](C)C[C@@H]1N(C)C [ERYTHROMYCIN ETHYLSUCCINATE] | 0 mg/dL |

---

- Organism: Rattus norvegicus
- PROTOCOL TEXT: Open TG-GATES - Regimen: Single
- Type: toxicity, organism-based, Sprague-Dawley
- Design: regimen Single, gender Male, age 6 weeks
- ASSAY CONDITIONS: in vivo, po, 1000 mg/kg, 3 h, tissue Plasma, route gavage, dose level High
Classify: Met when IP is strictly less than 9 mg/dL; Not met when IP is not.

| MOLECULE | LABEL |
| --- | --- |
| COC1=CC(=O)C[C@@H](C)[C@]12Oc1c(Cl)c(OC)cc(OC)c1C2=O | Met |
| CC(C)OC(=O)C(C)(C)Oc1ccc(C(=O)c2ccc(Cl)cc2)cc1 [FENOFIBRATE] | Not met |
| CCOC(=O)CCC(=O)O[C@H]1[C@H](O[C@@H]2[C@@H](C)[C@H](O[C@H]3C[C@@](C)(OC)[C@@H](O)[C@H](C)O3)[C@@H](C)C(=O)O[C@H](CC)[C@@](C)(O)[C@H](O)[C@@H](C)C(=O)[C@H](C)C[C@@]2(C)O)O[C@H](C)C[C@@H]1N(C)C [ERYTHROMYCIN ETHYLSUCCINATE] | Not met |

---

- Species on record: Rattus norvegicus
- PROTOCOL TEXT: Open TG-GATES - Regimen: Single
- Type: toxicity, organism-based, Sprague-Dawley
- Set-up: regimen Single, gender Male, age 6 weeks
- ASSAY CONDITIONS: in vivo, po, 100 mg/kg, 3 h, tissue Plasma, route gavage, dose level Low
The entries below are paired with their reported TP.
ATTRIBUTE MEASURED: TP

| COMPOUND | TEST VALUE |
| --- | --- |
| CCOC(=O)CCC(=O)O[C@H]1[C@H](O[C@@H]2[C@@H](C)[C@H](O[C@H]3C[C@@](C)(OC)[C@@H](O)[C@H](C)O3)[C@@H](C)C(=O)O[C@H](CC)[C@@](C)(O)[C@H](O)[C@@H](C)C(=O)[C@H](C)C[C@@]2(C)O)O[C@H](C)C[C@@H]1N(C)C [ERYTHROMYCIN ETHYLSUCCINATE] | 5.5 g/dL |
| NC(N)=Nc1nc(CSCCC(N)=NS(N)(=O)=O)cs1 [FAMOTIDINE] | 5.5 g/dL |
| COc1ccc2[nH]c([S+]([O-])Cc3ncc(C)c(OC)c3C)nc2c1 (centres undefined) [OMEPRAZOLE] | 5.4 g/dL |
| COC1=CC(=O)C[C@@H](C)[C@]12Oc1c(Cl)c(OC)cc(OC)c1C2=O [GRISEOFULVIN] | 5.4 g/dL |
